tested on: NCI-H226 lung; assay: NCI tumour cell line growth inhibition, 48 h
readout name: GI50

Solved entries:
smiles entry	GI50
COc1ccc(-c2ccc(-c3ccc(C(=N)N)s3)s2)cc1	2.06 µM
NC(=O)c1cc(S(=O)(=O)Nc2nnc(-c3ccccc3)c(-c3ccccc3)n2)c(SCc2ccccc2)cc1Cl	> 46.9 µM
N=C(N)c1ccc2nc(-c3cc(CC(=O)N[C@@H](CC(=O)O)C(=O)O)cc(-c4cc(S(N)(=O)=O)ccc4O)c3O)[nH]c2c1	> 100 µM
COC(=O)[C@@H](C)C[C@H](Cc1ccccc1)NC(=O)c1csc([C@@H](C[C@H](C(C)C)N(C)C(=O)[C@@H](NC(=O)[C@H]2CCCCN2C)C2CCCCC2)OC(C)=O)n1	0.0025 µM
CCOC(=O)c1c(NC(=O)c2cccc(C(F)(F)F)c2)sc2c(CN(C)C)c(O)ccc12	16 µM

Give the reported value of GI50 for this record: CCn1c(=O)c2c(=O)c3c4c(oc3oc2c2ccccc21)C(=O)c1ccccc1C4=O
> 100 µM

Give the reported value of GI50 for this record: COc1c[c]([Hg][O]C(C)=O)c(OC)c(NC(=O)CC(C)=O)[c]1[Hg][O]C(C)=O
19.5 µM

Give the reported value of GI50 for this record: CCN(Cc1ccccc1C)c1ccc(CO)c(Cl)c1
0.0375 µM
